For each record, write down the corresponding melting point.

Quick check: melting point of O=[N+]([O-])c1ccc(Sc2ccccc2)c(CO)c1 ? 104 to 107 °C

Quick check: melting point of CCCCOc1nc(NC2=CCC(=C=C3CC4CCC3(C)C4(C)C)C=C2)nc(NC2=CCC(=C=C3CC4CCC3(C)C4(C)C)C=C2)n1 ? 181 °C

Quick check: melting point of Cc1cc(-n2ccc(CCc3ccccc3)cc2=O)sc1C(=O)NCc1ccccc1 ? 145 to 146 °C

Quick check: melting point of CC(C)(C)OC(=O)NCC[C@H]1CC[C@H](COS(C)(=O)=O)CC1 ? 83 to 84 °C

Quick check: melting point of Cc1nn(C(=O)NC(C)(C)C)c(=O)n1N ? 132 °C

----------
experimental-readout: melting point

Quick check: melting point of Cn1c2sc(C(=O)O)cc2c2cccc(Cl)c21 ? 233 to 234 °C

Quick check: melting point of CCOC(=O)C(Sc1ccc(O)cc1)c1ccc(Cl)cc1 (centres undefined) ? 63 °C

Quick check: melting point of CCOC(=O)c1c(OC)nc2c(C)cc(C)cc2c1-c1ccccc1Cl ? 135 to 136 °C

Quick check: melting point of CC(C)(C)CC(C)(C)c1cc(Cc2cc(C(C)(C)C)cc(C(C)(C)C)c2O)c(O)c(-n2nc3ccccc3n2)c1 ? 137 °C

Quick check: melting point of Cc1oc(-c2ccccc2)nc1COc1cccc(CON=C(CCCCC(=O)O)c2ccccc2)c1 ? 114 to 115 °C

Quick check: melting point of CCOC(=O)Cc1nc(-c2cc(C(C)(C)C)c(O)c(C(C)(C)C)c2)oc1C ? 103 to 105 °C

Quick check: melting point of COc1ccccc1C(=O)NS(=O)(=O)c1ccc(NC(=O)C2CCCC2)cc1 ? 202 to 206 °C

Quick check: melting point of CCCCn1c(=O)c2c(ncn2S(=O)(=O)c2ccc(C(C)(C)C)cc2)n(CCCC)c1=O ? 105 to 107 °C

Quick check: melting point of Cn1c(N2CCOC(c3nc(-c4ccccc4)no3)C2)nc(-c2ccncn2)cc1=O (centres undefined) ? 167 °C

----------
For each record, write down the corresponding melting point.

Quick check: melting point of O=C(O)COc1ccc2c(c1)CCc1sc(SCCC(c3ccccc3)c3ccccc3)nc1-2 ? 138 to 140 °C

Quick check: melting point of O=C1CCCc2ccc(OCc3cccc(Cl)c3)cc21 ? 77 to 78 °C

Quick check: melting point of O=C1c2ccc(OCCOCCOCCO)cc2C(=O)c2ccc(OCCOCCOCCO)cc21 ? 110 °C

Quick check: melting point of Nc1nc2ccccc2c2c1nc(CO)n2CC1(O)CCOCC1 ? > 250 °C

Quick check: melting point of COC(=O)c1ccc(-c2ccc3c(c2)C=C(C(=O)Nc2ccc(CN(C)C4CCOCC4)cc2)CCC3)cc1 ? 176 to 183 °C

Quick check: melting point of CCOC(=O)N1CCCC(NC(=O)c2ccc(Cl)c(Cl)c2)C12CCCCC2 (stereo not given) ? 74 to 77 °C

Quick check: melting point of CC1SC=C2c3ccccc3C=CN2C1=O (stereo not given) ? 67 to 68 °C

Quick check: melting point of CNC(=S)N(C)Cc1ccc(Br)nc1 ? 107 to 108 °C

Quick check: melting point of CC(=O)Nc1cc2c(cc1[N+](=O)[O-])OCOC2 ? 158 to 159 °C

Quick check: melting point of CCc1nc(C(=O)OC)c(OC)c(N)c1F ? 110 to 113 °C
